Taken from patent US6759557B2.

# Tested on: melanoma cells B-16
# Method description: Inhibiting effect on melanin synthesis in pigment cells (whiteness of cell residue observed by eye)
# Format: cell-based
# Parameters: key: −: same colour as the comparative solvent example (black); +: slight colour difference from the comparative solvent example (black grey); ++: clear colour difference from the comparative solvent example (white grey); +++: no colour in the cells (white)
# Experimental setup: 1.6 ppm in culture medium, 4 days, B-16 melanoma cells
Endpoint: whiteness of cells rated by eye (melanin synthesis inhibition)

Here are 5 compounds together with their reported answers.
[
  {
    "Compound": "O=C1CCCCCCCCCCCCCCCC1",
    "Measured result": "+"
  },
  {
    "Compound": "O=C1CCCCCCCCCCCCCCC1",
    "Measured result": "+"
  },
  {
    "Compound": "O=C1CCCCCCCCCCCCCCCCCCCCCCC1O (centres unmarked) [2-hydroxycyclotetracosanone]",
    "Measured result": "+++"
  },
  {
    "Compound": "O=C1CCCCCCCCC=CCCCCCCCCC1 (mixture of isomers) [10(EZ)-cycloeicosenone]",
    "Measured result": "++"
  },
  {
    "Compound": "CC1/C=C/CCCCCCCCCCC(=O)CC1 (centres unmarked) [5(E)-4-methylcyclohexadecenone]",
    "Measured result": "+"
  }
]

QUERY: Looking for the measured whiteness of cells rated by eye (melanin synthesis inhibition) of O=C1CCCCCCCCCCCCCCCCCCC1O (centres unmarked) [2-hydroxycycloeicosanone] , can you help?
RESULT: +++

QUERY: Tell me the measured whiteness of cells rated by eye (melanin synthesis inhibition) of O=C1CCCCCCCCCCCCCCCCC1O (centres unmarked) [2-hydroxycyclooctadecanone] , please.
RESULT: ++

QUERY: Requested field: whiteness of cells rated by eye (melanin synthesis inhibition). Item: O=C1CCCCCCCC=CCCCCCC1O (centres unmarked) [2-hydroxy-8-cyclohexadecenone]
RESULT: −
